// provenance: ChEMBL document CHEMBL1135322

Target: Glutathionylspermidine synthase (Crithidia fasciculata)
Test name: Compound was tested for substrate activity towards the enzyme Glutathionylspermidine Synthetase wild-type enzyme and compared with 0.5 mM GSH
Where a SMILES comes first, the peptide text is derived from it.
The following molecules are listed with their measured Activity values.
Answer with the value and then the unit.

Please review the entries below; each comes with its answer.
CC(C)C[C@H](NC(=O)CC[C@H](N)C(=O)O)C(=O)NCB(O)O
1%
Cc1ccc(S(=O)(=O)NC(=O)CNC(=O)[C@H](CC(C)C)NC(=O)CC[C@H](N)C(=O)O)cc1
2%
CC(C)C[C@H](NC(=O)CC[C@H](N)C(=O)O)C(=O)NCC(=O)O (HELM PEPTIDE1{[gGlu].L.G}$$$$V2.0)
104%
CC(C)C[C@H](NC(=O)CC[C@H](N)C(=O)O)C(=O)NCP(=O)(O)O
0%
CC(C)C[C@H](NC(=O)CC[C@H](N)C(=O)O)C(=O)NCC(=O)NO (HELM PEPTIDE1{[gGlu].L.G.[ON[*:1]]}$$$$V2.0)
44%

Qu. Return reported Activity; argument: CC(C)C[C@H](NC(=O)CC[C@H](N)C(=O)O)C(=O)NCc1nn[nH]n1
Ans. 0%

Qu. Now consider CCCCOC(=O)CNC(=O)[C@H](CC(C)C)NC(=O)CC[C@H](N)C(=O)O and answer again.
Ans. 102%

Qu. Now consider CC(C)C[C@H](NC(=O)CC[C@H](N)C(=O)O)C(=O)NCC(N)=O (HELM PEPTIDE1{[gGlu].L.G.[am]}$$$$V2.0) and answer again.
Ans. 93%

====

Target: Glutathionylspermidine synthase (Crithidia fasciculata, UniProt P90518)
Test name: Inhibition constant was evaluated against enzyme Glutathionylspermidine Synthetase wild-type enzyme
Reported metric: Ki (µM)
Respond numerically; units are µM and should not be typed.

Qu. Return reported Ki; argument: CC(C)C[C@H](NC(=O)CC[C@H](N)C(=O)O)C(=O)NCP(=O)(O)O
Ans. 60

====

The following compounds are listed with their measured IC50 values.
Target: Glutathionylspermidine synthase (Crithidia fasciculata)
Test name: Concentration required for the inhibition of enzyme Glutathionylspermidine Synthetase wild-type enzyme
Respond numerically; units are µM and should not be typed.

Please review the entries below; each comes with its answer.
CC(C)C[C@H](NC(=O)CC[C@H](N)C(=O)O)C(=O)NCP(=O)(O)O
60
Cc1ccc(S(=O)(=O)NC(=O)CNC(=O)[C@H](CC(C)C)NC(=O)CC[C@H](N)C(=O)O)cc1
2
CC(C)C[C@H](NC(=O)CC[C@H](N)C(=O)O)C(=O)NCc1nnn[nH]1
138

Then this compound:
Qu. Return reported IC50; argument: CC(C)C[C@H](NC(=O)CC[C@H](N)C(=O)O)C(=O)NCB(O)O
Ans. 17.2

====

Test name: Half-life was determined
Type: ADME
Settings: human
Where a SMILES comes first, the peptide text is derived from it.
Reported metric: half-life (h)
Respond numerically; units are h and should not be typed.

Qu. Return reported half-life; argument: CC(C)C[C@H](NC(=O)CC[C@H](N)C(=O)O)C(=O)NCC(=O)O (HELM PEPTIDE1{[gGlu].L.G}$$$$V2.0)
Ans. 1

====

Target: Glutathionylspermidine synthase (Crithidia fasciculata, UniProt P90518, C79A)
Sequence (P90518 whole entry C79A): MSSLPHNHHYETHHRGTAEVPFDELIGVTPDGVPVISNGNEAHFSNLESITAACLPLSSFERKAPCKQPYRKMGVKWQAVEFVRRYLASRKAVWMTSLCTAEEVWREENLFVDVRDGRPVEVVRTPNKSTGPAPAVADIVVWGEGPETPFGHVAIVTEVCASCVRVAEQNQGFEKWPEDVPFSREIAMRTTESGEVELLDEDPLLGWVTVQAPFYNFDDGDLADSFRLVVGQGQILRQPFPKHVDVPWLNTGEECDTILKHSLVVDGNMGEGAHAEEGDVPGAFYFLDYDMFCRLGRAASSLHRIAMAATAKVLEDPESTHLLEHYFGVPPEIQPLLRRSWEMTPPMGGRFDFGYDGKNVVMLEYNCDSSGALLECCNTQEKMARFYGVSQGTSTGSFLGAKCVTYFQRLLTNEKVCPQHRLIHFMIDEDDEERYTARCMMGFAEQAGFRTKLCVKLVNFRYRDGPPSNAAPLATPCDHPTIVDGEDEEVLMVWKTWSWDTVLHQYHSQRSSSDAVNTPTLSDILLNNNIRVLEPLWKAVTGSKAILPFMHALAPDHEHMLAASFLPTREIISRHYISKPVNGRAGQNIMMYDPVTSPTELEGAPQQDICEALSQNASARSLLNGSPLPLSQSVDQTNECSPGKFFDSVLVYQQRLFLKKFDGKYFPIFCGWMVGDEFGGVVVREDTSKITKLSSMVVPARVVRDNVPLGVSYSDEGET
Test name: Inhibitory constant against amidase free Glutathionylspermidine Synthetase mutant (C79A)
Where a SMILES comes first, the peptide text is derived from it.
Reported metric: Ki (µM)
Respond numerically; units are µM and should not be typed.

Qu. Return reported Ki; argument: CC(C)C[C@H](NC(=O)CC[C@H](N)C(=O)O)C(=O)NCC(=O)NO (HELM PEPTIDE1{[gGlu].L.G.[ON[*:1]]}$$$$V2.0)
Ans. 2.5

====

The following molecules are listed with their measured inhibition values.
Target: Glutathionylspermidine synthase (Crithidia fasciculata) (UniProt P90518)
Test name: Inhibitory activity against amidase free Glutathionylspermidine Synthetase mutant (C79A)
Settings: concentration not given here
Where a SMILES comes first, the peptide text is derived from it.
Respond numerically; units are % and should not be typed.

Please review the entries below; each comes with its answer.
CCCCOC(=O)CNC(=O)[C@H](CC(C)C)NC(=O)CC[C@H](N)C(=O)O
26
CC(C)C[C@H](NC(=O)CC[C@H](N)C(=O)O)C(=O)NCC(N)=O (HELM PEPTIDE1{[gGlu].L.G.[am]}$$$$V2.0)
89
CC(C)C[C@H](NC(=O)CC[C@H](N)C(=O)O)C(=O)NCC(=O)NO (HELM PEPTIDE1{[gGlu].L.G.[ON[*:1]]}$$$$V2.0)
98

Then this molecule:
Qu. Return reported inhibition; argument: CC(C)C[C@H](NC(=O)CC[C@H](N)C(=O)O)C(=O)NCC(=O)O (HELM PEPTIDE1{[gGlu].L.G}$$$$V2.0)
Ans. 0

====

Target: Glutathionylspermidine synthase (Crithidia fasciculata) (UniProt P90518)
Sequence (whole entry): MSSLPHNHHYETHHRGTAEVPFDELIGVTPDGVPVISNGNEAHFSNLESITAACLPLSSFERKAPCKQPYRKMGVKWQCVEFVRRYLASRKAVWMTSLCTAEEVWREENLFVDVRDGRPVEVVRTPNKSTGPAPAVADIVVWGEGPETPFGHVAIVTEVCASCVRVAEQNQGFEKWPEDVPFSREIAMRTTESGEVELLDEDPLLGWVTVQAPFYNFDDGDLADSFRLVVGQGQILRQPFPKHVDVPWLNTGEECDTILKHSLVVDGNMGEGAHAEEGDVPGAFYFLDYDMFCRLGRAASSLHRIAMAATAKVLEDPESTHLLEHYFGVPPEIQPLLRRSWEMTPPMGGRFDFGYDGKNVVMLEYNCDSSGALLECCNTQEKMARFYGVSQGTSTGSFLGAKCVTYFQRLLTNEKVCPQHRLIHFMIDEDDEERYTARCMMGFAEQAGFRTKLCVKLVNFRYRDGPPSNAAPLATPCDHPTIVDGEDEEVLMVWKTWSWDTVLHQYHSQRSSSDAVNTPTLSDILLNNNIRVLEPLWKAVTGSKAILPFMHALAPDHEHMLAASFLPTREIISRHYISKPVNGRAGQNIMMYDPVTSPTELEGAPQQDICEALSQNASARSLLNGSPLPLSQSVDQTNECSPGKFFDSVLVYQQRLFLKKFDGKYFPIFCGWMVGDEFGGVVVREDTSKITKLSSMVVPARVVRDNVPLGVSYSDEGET
Test name: Compound was tested for percent inhibition towards the enzyme Glutathionylspermidine Synthetase wild-type enzyme and compared with 0.5 mM GSH
Where a SMILES comes first, the peptide text is derived from it.
The following compounds are listed with their measured inhibition values.
Respond numerically; units are % and should not be typed.

Please review the entries below; each comes with its answer.
CC(C)C[C@H](NC(=O)CC[C@H](N)C(=O)O)C(=O)NCC(=O)NO (HELM PEPTIDE1{[gGlu].L.G.[ON[*:1]]}$$$$V2.0)
76
CC(C)C[C@H](NC(=O)CC[C@H](N)C(=O)O)C(=O)NCC(N)=O (HELM PEPTIDE1{[gGlu].L.G.[am]}$$$$V2.0)
0
CC(C)C[C@H](NC(=O)CC[C@H](N)C(=O)O)C(=O)NCc1nn[nH]n1
58

Qu. Report inhibition for CC(C)C[C@H](NC(=O)CC[C@H](N)C(=O)O)C(=O)NCP(=O)(O)O tested on Glutathionylspermidine synthase (Crithidia fasciculata) (UniProt P90518).
Ans. 86

Qu. Now consider Cc1ccc(S(=O)(=O)NC(=O)CNC(=O)[C@H](CC(C)C)NC(=O)CC[C@H](N)C(=O)O)cc1 and answer again.
Ans. 2

Qu. Now consider CC(C)C[C@H](NC(=O)CC[C@H](N)C(=O)O)C(=O)NCB(O)O and answer again.
Ans. 95

Qu. Now consider CC(C)C[C@H](NC(=O)CC[C@H](N)C(=O)O)C(=O)NCC(=O)O (HELM PEPTIDE1{[gGlu].L.G}$$$$V2.0) and answer again.
Ans. 0

Qu. Now consider CCCCOC(=O)CNC(=O)[C@H](CC(C)C)NC(=O)CC[C@H](N)C(=O)O and answer again.
Ans. 0

====

The following molecules are listed with their measured Activity values.
Target: Glutathionylspermidine synthase (Crithidia fasciculata) (UniProt P90518)
Test name: Substrate activity against amidase free Glutathionylspermidine Synthetase mutant (C79A)
Where a SMILES comes first, the peptide text is derived from it.
Respond numerically; units are % and should not be typed.

CC(C)C[C@H](NC(=O)CC[C@H](N)C(=O)O)C(=O)NCC(=O)NO (HELM PEPTIDE1{[gGlu].L.G.[ON[*:1]]}$$$$V2.0)
1
CCCCOC(=O)CNC(=O)[C@H](CC(C)C)NC(=O)CC[C@H](N)C(=O)O
3
CC(C)C[C@H](NC(=O)CC[C@H](N)C(=O)O)C(=O)NCC(N)=O (HELM PEPTIDE1{[gGlu].L.G.[am]}$$$$V2.0)
22

Qu. Return reported Activity; argument: CC(C)C[C@H](NC(=O)CC[C@H](N)C(=O)O)C(=O)NCC(=O)O (HELM PEPTIDE1{[gGlu].L.G}$$$$V2.0)
Ans. 125
